Target: UniProt P06211
Sequence (P06211 whole entry): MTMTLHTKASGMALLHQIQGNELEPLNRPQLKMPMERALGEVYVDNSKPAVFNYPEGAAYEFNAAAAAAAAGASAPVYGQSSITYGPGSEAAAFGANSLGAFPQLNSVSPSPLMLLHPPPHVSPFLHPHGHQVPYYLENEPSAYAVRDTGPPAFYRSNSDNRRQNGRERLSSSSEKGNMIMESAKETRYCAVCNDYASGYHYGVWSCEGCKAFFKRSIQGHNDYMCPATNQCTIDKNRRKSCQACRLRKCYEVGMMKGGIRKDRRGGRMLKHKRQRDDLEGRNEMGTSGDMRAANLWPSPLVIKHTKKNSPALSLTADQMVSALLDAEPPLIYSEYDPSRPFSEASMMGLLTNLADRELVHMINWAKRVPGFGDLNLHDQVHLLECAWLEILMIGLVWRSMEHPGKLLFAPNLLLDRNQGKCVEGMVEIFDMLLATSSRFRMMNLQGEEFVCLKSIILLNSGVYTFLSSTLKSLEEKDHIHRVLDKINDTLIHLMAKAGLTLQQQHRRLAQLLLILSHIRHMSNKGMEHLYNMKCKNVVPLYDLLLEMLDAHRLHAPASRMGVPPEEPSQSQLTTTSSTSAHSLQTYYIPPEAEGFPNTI
Test: Binding affinity to Charles Foster Rattus norvegicus (rat) uterine 17beta-estradiol receptor cytosolic form relative to estradiol
READOUT_NAME: Activity
Record the result as a number with its unit.

Consider the following illustrative entries.
molecule="COc1ccc2c(c1)OC(C)(C)[C@@H](c1ccccc1)[C@@H]2c1ccc(O)cc1 (relative stereo; 1b)" target_under_test="UniProt P06211" observed=5.42%
molecule="COc1ccc2c(c1)OC(C)(C)[C@@H](c1ccccc1)[C@@H]2c1ccc(OC(C)C(=O)O)cc1 (stereo in doubt; 3c)" target_under_test="UniProt P06211" observed=0.037%

Now take the following molecule into account.
Enquiry: Look up and state reported Activity for COc1ccc2c(c1)OC(C)(C)[C@H](c1ccccc1)[C@H]2c1ccc(OC(C)C(=O)NN)cc1 (single isomer, unassigned; (+))
Return: 0.24%

Origin of measurements: ChEMBL document CHEMBL3045972
